Test system: ACHN
Assay: NCI tumour cell line growth inhibition, 48 h
Calls of active or inactive are those of the source. No stated cut-off is given here; in the data, active = GI50 up to about 1.1 µM and inactive = higher.
Choose one outcome from this list and give only that: active, inactive

What did the test return for CCOc1cc(C2CC(c3ccc(NS(=O)(=O)c4cc([N+](=O)[O-])ccc4C)cc3)=NN2C(=O)c2ccccc2)ccc1O (stereo not given) ?
inactive

###

System: M14
Assay: NCI tumour cell line growth inhibition, 48 h
Active and inactive are the calls of the source. Rule as the data show it: active = GI50 up to about 1.1 µM and inactive = higher.
QUANTITY NAME: GI50

Worked examples, 3 compounds total:
| COMPOUND | TEST VALUE |
| --- | --- |
| COC1(OC)C(/C(N)=C\O)=NC(C)(C)N1O | > 100 µM (inactive) |
| Cn1cc(NC(=O)c2cc(NC(=O)CCCCCC(=O)Nc3cc(C(=O)Nc4cc(C(=O)NCCC(=N)N)n(C)c4)n(C)c3)cn2C)cc1C(=O)NCCC(=N)N | > 100 µM (inactive) |
| CCN(CC)CCCNc1nc(=O)[nH]c(C)c1C(=O)Nc1c2ccccc2nc2ccccc12 | 15.5 µM (inactive) |

Could you report GI50 for every entry in the following list?
1. Nc1ncnc2c1ncn2C1OC(CSCc2ccc(Cl)cc2)C(O)C1O (configuration not stated)
2. CC1CN=C(N(C(=O)Nc2ccc(F)c(Cl)c2)c2ccccc2)S1 (configuration not stated)
3. O=C1OCc2cccc3c2-c2c1cccc2C(=O)OC3
4. CNc1nc(=O)c(C#N)c(-c2ccc(C)cc2)s1

1: 17.1 µM (inactive); 2: 28.4 µM (inactive); 3: > 100 µM (inactive); 4: > 100 µM (inactive)

Could you report GI50 for every entry in the following list?
1. O=C1N=C(SC2OC(CO)C(O)C(O)C2O)S/C1=C\c1ccccc1 (configuration not stated)
2. CC1(C)Oc2ccc(NC(=O)CCC(N)C(=O)O)cc2O1 (configuration not stated)
3. COc1ccc(CNNC(=O)c2cc[n+]([BH2-]C#N)cc2)cc1OC
4. CCCC(CCC(=O)O)(CCC(=O)O)[N+](=O)[O-]

1: > 100 µM (inactive); 2: > 100 µM (inactive); 3: > 100 µM (inactive); 4: > 100 µM (inactive)

Could you report GI50 for every entry in the following list?
1. O=S(=O)(O)c1ccc(/N=N\c2c(O)ccc3cc(Br)ccc23)cc1
2. C[C@H](N)C(=O)Nc1ccc(-c2nc3ccccc3s2)cc1Cl
3. CCCCCCC(O)C/C=C/CCCCCC/C(C(=O)OC)=C(/O)C(=O)OCC (configuration not stated)

1. > 100 µM (inactive)
2. 5.78 µM (inactive)
3. > 100 µM (inactive)

Could you report GI50 for every entry in the following list?
1. CN(CCCNC(=O)c1cn(C)c2c1ccc1ccccc12)CCCNC(=O)c1cn(C)c2c1ccc1ccccc12
2. C=C1c2nc3ccccc3n2C=C(c2ccc(C)cc2)N1c1ccc(OC)cc1
3. C1=C2SSC3=CC=C(SSc4ccc(s4)SSC4=CC=C(SSC(=C1)S2)S4)S3

1.58 µM (inactive)
58.2 µM (inactive)
> 100 µM (inactive)

###

Test system: NCI/ADR-RES
Assay: NCI tumour cell line growth inhibition, 48 h
Active and inactive are the calls of the source. No stated cut-off is given here; in the data, active = GI50 up to about 1.1 µM and inactive = higher.
Would you kindly list GI50 for each of these molecules?

Worked examples, 8 molecules total:
| MOLECULE | GI50 |
| --- | --- |
| O=C([C@H](O)[C@@H](O)c1ccc(Br)cc1)C12CC3CC(CC(C3)C1)C2 | 24.9 µM (inactive) |
| COc1ccc2cc(C(=O)CCC(=O)O)ccc2c1 | > 100 µM (inactive) |
| COC(=O)C(CBr)CBr | 3.1 µM (inactive) |
| CCC(/C=C/c1ccccc1)=N\Nc1ccc(Cl)c(Cl)c1 | 31.9 µM (inactive) |
| COC(=O)C(C)(NC(=O)C(CC(=O)OC(C)(C)C)NC(=O)OC(C)(C)C)c1ccccc1 (stereo not given) | 55.1 µM (inactive) |
| ClCCN1CCC2(CC1)SSC1(CCN(CCCl)CC1)S2 | 49.7 µM (inactive) |
| Fc1ccc2nc3n(c2c1)C(c1c(Cl)cccc1Cl)SC3 (stereo not given) | > 100 µM (inactive) |
| COc1c(O)cc2oc(-c3ccc(O)cc3)cc(=O)c2c1O | 36.1 µM (inactive) |

Could you report GI50 for every entry in the following list?
1. CCOc1cc2c(cc1OC(C)=O)C(=O)CC[C@H]1C3CC[C@H](OC(C)=O)[C@@]3(C)CC[C@H]21 (stereo not given in full)
2. O=C(/C=C/c1ccc(Cl)c(Cl)c1)CCN1CCN(CCC(=O)/C=C/c2ccc(Cl)c(Cl)c2)CC1

1: > 100 µM (inactive); 2: 36.9 µM (inactive)
